Measured Activity, listed per entry.
- ASSAYED SYSTEM: Pyruvate kinase PKM (Homo sapiens) (UniProt P14618)
- Sequence (P14618 2-531 limits assumed): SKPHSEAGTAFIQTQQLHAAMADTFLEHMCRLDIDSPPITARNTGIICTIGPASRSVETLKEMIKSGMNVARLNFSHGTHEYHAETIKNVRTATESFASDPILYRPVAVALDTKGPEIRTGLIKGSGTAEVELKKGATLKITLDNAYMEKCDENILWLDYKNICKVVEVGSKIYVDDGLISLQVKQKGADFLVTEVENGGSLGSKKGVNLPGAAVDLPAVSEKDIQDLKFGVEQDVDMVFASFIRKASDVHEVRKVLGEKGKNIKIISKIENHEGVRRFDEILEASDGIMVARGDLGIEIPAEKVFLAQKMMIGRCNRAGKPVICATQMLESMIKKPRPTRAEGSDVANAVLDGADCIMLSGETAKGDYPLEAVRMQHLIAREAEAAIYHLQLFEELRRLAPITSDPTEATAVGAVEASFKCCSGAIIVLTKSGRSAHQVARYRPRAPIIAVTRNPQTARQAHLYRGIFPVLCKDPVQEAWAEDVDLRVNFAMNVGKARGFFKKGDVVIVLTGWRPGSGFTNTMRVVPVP
- EXPERIMENT DESCRIPTION: Activation of human pyruvate kinase M2 using phosphoenolpyruvate as substrate assessed as concentration required for 50% activation by kinaseGlo assay
ASSAY ENDPOINT: Activity

[[record]]
compound = "CS(=O)(=O)N1CCc2cc(S(=O)(=O)c3ccc4c(c3)OCCO4)ccc21"
reported_value = "0.045 µM"

[[record]]
compound = "CCS(=O)(=O)N1Cc2ccc(S(=O)(=O)c3ccc4c(c3)OCCO4)cc2C1"
reported_value = "0.02 µM"

[[record]]
compound = "CC1Cc2cc(S(=O)(=O)c3ccc4c(c3)OCCO4)ccc2N1S(=O)(=O)c1ccc(F)cc1 (racemic)"
reported_value = "0.6 µM"

[[record]]
compound = "CS(=O)(=O)N1Cc2ccc(S(=O)(=O)c3ccc4c(c3)OCCO4)cc2C1"
reported_value = "0.017 µM"


----------
- ASSAYED SYSTEM: hERG (KCNH2) (Homo sapiens, UniProt Q12809)
- Sequence (Q12809 whole entry): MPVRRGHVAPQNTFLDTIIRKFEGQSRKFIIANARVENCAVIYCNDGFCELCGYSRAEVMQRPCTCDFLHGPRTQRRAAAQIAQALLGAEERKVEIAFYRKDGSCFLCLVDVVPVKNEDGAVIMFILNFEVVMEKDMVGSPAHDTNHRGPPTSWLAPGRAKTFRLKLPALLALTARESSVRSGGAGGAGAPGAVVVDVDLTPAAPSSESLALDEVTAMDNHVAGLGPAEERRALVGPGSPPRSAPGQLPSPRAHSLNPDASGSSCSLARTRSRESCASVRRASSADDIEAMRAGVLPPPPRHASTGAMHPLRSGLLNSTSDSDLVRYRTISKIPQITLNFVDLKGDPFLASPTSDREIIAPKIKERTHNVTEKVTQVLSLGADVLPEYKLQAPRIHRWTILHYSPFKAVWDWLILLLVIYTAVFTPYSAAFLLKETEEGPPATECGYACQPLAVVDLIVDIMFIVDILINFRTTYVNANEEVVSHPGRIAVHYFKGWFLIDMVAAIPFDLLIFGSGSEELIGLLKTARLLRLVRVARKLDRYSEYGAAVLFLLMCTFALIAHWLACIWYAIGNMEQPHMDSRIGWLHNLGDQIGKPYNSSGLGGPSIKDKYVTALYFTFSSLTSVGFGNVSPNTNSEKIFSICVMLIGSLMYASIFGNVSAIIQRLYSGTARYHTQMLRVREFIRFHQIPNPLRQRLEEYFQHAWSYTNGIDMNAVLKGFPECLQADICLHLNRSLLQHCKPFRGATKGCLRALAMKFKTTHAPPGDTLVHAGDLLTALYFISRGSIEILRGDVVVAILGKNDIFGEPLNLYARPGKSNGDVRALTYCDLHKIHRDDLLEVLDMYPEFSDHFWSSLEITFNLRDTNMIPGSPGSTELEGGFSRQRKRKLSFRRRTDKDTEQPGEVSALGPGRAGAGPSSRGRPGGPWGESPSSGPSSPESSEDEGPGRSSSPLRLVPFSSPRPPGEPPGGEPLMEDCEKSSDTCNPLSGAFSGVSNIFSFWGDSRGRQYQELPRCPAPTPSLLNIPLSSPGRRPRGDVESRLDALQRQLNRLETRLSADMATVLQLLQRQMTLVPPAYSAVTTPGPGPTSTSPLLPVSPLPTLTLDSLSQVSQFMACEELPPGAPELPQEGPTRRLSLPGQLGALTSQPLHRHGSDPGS
- EXPERIMENT DESCRIPTION: Inhibition of human ERG expressed in CHO cells at 1 uM measured up to 3 mins by whole cell patch clamp assay
- Type: cell-based
- CONDITION: CHO cells expressing human ERG
ASSAY ENDPOINT: inhibition at 0.05 h, 1 µM

[[record]]
smiles_data = "CS(=O)(=O)N1CCc2cc(S(=O)(=O)c3ccc4c(c3)OCCO4)ccc21"
reported_value = "9%"

[[record]]
smiles_data = "CS(=O)(=O)N1Cc2ccc(S(=O)(=O)c3ccc4c(c3)OCCO4)cc2C1"
reported_value = "7.3%"


----------
- ASSAYED SYSTEM: Pyruvate kinase PKM (Homo sapiens) (UniProt P14618)
- EXPERIMENT DESCRIPTION: Activation of human pyruvate kinase M2 using phosphoenolpyruvate as substrate assessed as concentration required for 50% activation by kinaseGlo assay
Measured log10(Activity), listed per entry.
ASSAY ENDPOINT: log10(Activity) (log10 of the value in µM)

[[record]]
molecule = "CC(C)CS(=O)(=O)N1Cc2ccc(S(=O)(=O)c3ccc4c(c3)OCCO4)cc2C1"
assay_endpoint = "log10(Activity)"
reported_value = -0.72

[[record]]
molecule = "O=S(=O)(c1ccc2c(c1)CCN2S(=O)(=O)C1CC1)c1ccc2c(c1)OCCO2"
assay_endpoint = "log10(Activity)"
reported_value = -1.77

[[record]]
molecule = "CCS(=O)(=O)N1CCc2cc(C(=O)CSc3cccc(OC)c3)ccc21"
assay_endpoint = "log10(Activity)"
reported_value = 0.38

[[record]]
molecule = "CC1Cc2cc(S(=O)(=O)c3ccc4c(c3)OCCO4)ccc2N1S(=O)(=O)c1ccccc1 (racemic)"
assay_endpoint = "log10(Activity)"
reported_value = -0.22

[[record]]
molecule = "O=P(O)(O)OC[C@H]1O[C@@](O)(COP(=O)(O)O)[C@@H](O)[C@@H]1O"
assay_endpoint = "log10(Activity)"
reported_value = -1.10


----------
- EXPERIMENT DESCRIPTION: Efflux ratio of apparent permeability from basal to apical to apical to basal side of human Caco2 cells at 10 uM after 90 mins by LC-MS/MS analysis
- CONDITION: Caco-2
ASSAY ENDPOINT: efflux ratio at 1.5 h, 10 µM

[[record]]
compound = "CS(=O)(=O)N1Cc2ccc(S(=O)(=O)c3ccc4c(c3)OCCO4)cc2C1"
assay_endpoint = "efflux ratio at 1.5 h, 10 µM"
reported_value = 1.06

[[record]]
compound = "CS(=O)(=O)N1CCc2cc(S(=O)(=O)c3ccc4c(c3)OCCO4)ccc21"
assay_endpoint = "efflux ratio at 1.5 h, 10 µM"
reported_value = 1.14

[[record]]
compound = "CC1Cc2cc(S(=O)(=O)c3ccc4c(c3)OCCO4)ccc2N1S(C)(=O)=O (racemic)"
assay_endpoint = "efflux ratio at 1.5 h, 10 µM"
reported_value = 0.59

